- Tested on: IL-2
- test description: PHA-IL2 (cell activation and cytokine analysis)
- Assay type: cell-based
- experimental conditions: 50% inhibition concentration class
readout label: IC50

structure smiles: N#Cc1ccc(OCC(=O)N2CCC(CCc3ccccc3)CC2)c(-c2ccc3[nH]cnc3c2)c1
readout label: IC50
result: 1 to 10 µM
--
structure smiles: Cn1ccc2cc(-c3ncccc3OCC(=O)N3CCC(CCc4ccc5c(c4)OCO5)CC3)ccc21
readout label: IC50
result: 1 to 10 µM
--
structure smiles: N#Cc1ccc(-c2ccccc2OCC(=O)N2CCC(CCc3cccc4c3OCO4)CC2)cc1
readout label: IC50
result: < 1 µM

Consider the record given below.
q: Could you share which IC50 value was measured for `O=C(COc1ccccc1-c1ccccc1OC(F)(F)F)N1CCC(CCc2ccc3c(c2)OCO3)CC1` ?
a: 10 to 50 µM
